The reported numbers originate from patent US20230049952A1.

Assay: Compound 2 and metabolites in rat plasma, 50 mg/kg PO QD×10
Assay type: in vivo
Conditions: rat plasma; Compound 2 50 mg/kg PO QD×1; 8 h
RECORDED_METRIC: Average Concentration (ng/mL)

- ENTRY_SMILES: "CCn1c(C#CCNc2ccc(C)nc2)cc2cc(CNC3CCOCC3)ccc21"
  RECORDED_METRIC: "Average Concentration"
  VAL: 95.78
- ENTRY_SMILES: "CCn1c(C#CCNc2ccc(F)cc2)cc2cc(CNC)ccc21"
  RECORDED_METRIC: "Average Concentration"
  VAL: 817.33
- ENTRY_SMILES: "CCn1c(C#CCNc2ccccc2)cc2cc(CNCc3ccccc3)ccc21"
  RECORDED_METRIC: "Average Concentration"
  VAL: 73.43
- ENTRY_SMILES: "CCn1c(C#CCNc2ccc(Cl)cc2)cc2cc(CNC3CCN(C)CC3)ccc21"
  RECORDED_METRIC: "Average Concentration"
  VAL: 2.50

----------
Molecular target: CYP2C9 (Homo sapiens)
Sequence (P11712 whole entry): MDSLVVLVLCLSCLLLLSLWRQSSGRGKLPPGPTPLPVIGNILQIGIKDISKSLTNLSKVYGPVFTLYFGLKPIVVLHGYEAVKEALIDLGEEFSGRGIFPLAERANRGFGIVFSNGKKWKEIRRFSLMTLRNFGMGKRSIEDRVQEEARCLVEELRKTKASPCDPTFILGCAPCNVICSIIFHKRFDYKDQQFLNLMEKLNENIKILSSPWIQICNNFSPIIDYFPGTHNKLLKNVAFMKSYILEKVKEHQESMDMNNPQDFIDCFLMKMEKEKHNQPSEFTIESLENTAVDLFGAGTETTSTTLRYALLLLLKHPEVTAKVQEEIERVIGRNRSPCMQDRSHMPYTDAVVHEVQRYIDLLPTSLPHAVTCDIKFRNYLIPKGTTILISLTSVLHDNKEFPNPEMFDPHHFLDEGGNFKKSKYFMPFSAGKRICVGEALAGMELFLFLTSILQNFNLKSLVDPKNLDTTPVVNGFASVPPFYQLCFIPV
Assay: in vitro
Details: both, microsomes, pH 7.4, % of Control Enzyme Activity
RECORDED_METRIC: activity at 20 min, 3.33 µM (%)

- ENTRY_SMILES: "O=C(O)COc1ccc(C(=O)c2cccs2)c(Cl)c1Cl"
  RECORDED_METRIC: "activity at 20 min, 3.33 µM"
  VAL: 32.8

----------
Assay: Compound 2 and metabolites in rat plasma, 50 mg/kg PO QD×10
Type: in vivo
Conditions: rat plasma; Compound 2 50 mg/kg PO QD×1; 24 h

- ENTRY_SMILES: "CCn1c(C#CCNc2ccc(F)cc2)cc2cc(CNC)ccc21"
  Average Concentration / ng/mL: 205.50
- ENTRY_SMILES: "CCn1c(C#CCNc2ccc(C)nc2)cc2cc(CNC3CCOCC3)ccc21"
  Average Concentration / ng/mL: 1.88
- ENTRY_SMILES: "CCn1c(C#CCNc2ccccc2)cc2cc(CNCc3ccccc3)ccc21"
  Average Concentration / ng/mL: 17.88
